The origin of these recorded values is PubChem BioAssay (EPA / NIEHS).

- Read-out: C-C motif chemokine 2 (Homo sapiens) (UniProt P13500)
- experiment_description: BSK_KF3CT_MCP1: BioMAP Diversity Plus: KF3CT Assay for Monocyte Chemoattractant Protein 1 (MCP1/CCL2) Biomarker Activity (AID 2283073)
- experimental_conditions: primary human keratinocytes with fibroblasts; actives raise or lower the signal
Active and inactive are the calls of the source. How the source made its calls: active means hit-call score of the fitted dose curve at least 0.9, where 1 is the maximum; inactive means score below 0.9.
Labels: active, inactive

> print(dat)
                                    compound  classification
 1  N#Cc1nn(-c2c(Cl)cc(C(F)(F)F)cc2Cl)c(N)c1S(=O)C(F)(F)F (stereo not drawn)        inactive
 2  N#CC(CCc1ccc(Cl)cc1)(Cn1cncn1)c1ccccc1 (stereo not drawn)        inactive
 3  COC(=O)C(C)Oc1ccc(Oc2ccc(Cl)cc2Cl)cc1 (stereo not drawn)        inactive
 4                   CCNc1nc(Cl)nc(NC(C)C)n1        inactive
 5  CCOc1cc(Oc2ccc(C(F)(F)F)cc2Cl)ccc1[N+](=O)[O-]        inactive
 6  CC(C)(C)c1ccc(CSc2cnn(C(C)(C)C)c(=O)c2Cl)cc1          active
 7  OC(c1ccc(Cl)cc1)(c1cncnc1)c1ccccc1Cl (stereo not drawn)        inactive
 8  COc1nc(C)nc(NC(=O)NS(=O)(=O)c2ccccc2Cl)n1        inactive
 9                    COC(=O)c1ccccc1C(=O)OC        inactive
10  CC(C)Oc1cc(-n2nc(C(C)(C)C)oc2=O)c(Cl)cc1Cl        inactive
11              CCCCOC(=O)c1ccccc1C(=O)OCCCC        inactive
12         CCCCNC(=O)n1c(NC(=O)OC)nc2ccccc21        inactive
13                                  CNC(=S)S        inactive
14                    N#Cc1cc(Br)c(O)c(Br)c1        inactive
15  CCc1nn(C)c(C(=O)NCc2ccc(C(C)(C)C)cc2)c1Cl          active
16  CS/C(C)=N/OC(=O)N(C)SN(C)C(=O)O/N=C(\C)SC          active
17                    CN(C)C(=S)SSC(=S)N(C)C          active
18  C#CCOS(=O)OC1CCCCC1Oc1ccc(C(C)(C)C)cc1 (stereo not drawn)          active

---

- Read-out: Interleukin-8 (IL8), CXCL8 (gene 3576)
- experiment_description: BSK_LPS_IL8: BioMAP Diversity Plus: LPS Assay for Interleukin-8 (IL8) Biomarker Activity (AID 2283078)
- experimental_conditions: primary human HUVEC with PBMC; actives raise or lower the signal
Calls of active or inactive are those of the source. How the source made its calls: active means hit-call score of the fitted dose curve at least 0.9, where 1 is the maximum; inactive means score below 0.9.
Possible outcomes: TRUE = active, FALSE = inactive

> print(dat)
                                    compound  classification
 1                 COC(=O)C=C(C)OP(=O)(OC)OC           FALSE
 2                      O=C(O)c1nc(Cl)ccc1Cl           FALSE
 3         COP(N)(=O)SC (stereo unspecified)           FALSE
 4                O=C(O)COc1nc(Cl)c(Cl)cc1Cl           FALSE
 5  C#CCOS(=O)OC1CCCCC1Oc1ccc(C(C)(C)C)cc1 (stereo unspecified)            TRUE
 6  CCOC(=O)CC(SP(=S)(OC)OC)C(=O)OCC (stereo unspecified)           FALSE
 7  N#CC(CCc1ccc(Cl)cc1)(Cn1cncn1)c1ccccc1 (stereo unspecified)           FALSE
 8  CCCN(CCC)c1c([N+](=O)[O-])cc(S(N)(=O)=O)cc1[N+](=O)[O-]            TRUE
 9                CC1=C(C(=O)Nc2ccccc2)SCCO1           FALSE
10                    COC(=O)c1ccccc1C(=O)OC           FALSE
11  CC(C)(C)c1ccc(CSc2cnn(C(C)(C)C)c(=O)c2Cl)cc1            TRUE
12                                  CNC(=S)S            TRUE
13  COc1nc(C)nc(NC(=O)NS(=O)(=O)c2ccccc2CCC(F)(F)F)n1           FALSE
14  OC(c1ccc(Cl)cc1)(c1cncnc1)c1ccccc1Cl (stereo unspecified)           FALSE
15  Cc1ccc(-c2c(Cl)nc(C#N)n2S(=O)(=O)N(C)C)cc1            TRUE
16  COC(=O)C(C)Oc1ccc(Oc2ccc(Cl)cc2Cl)cc1 (stereo unspecified)           FALSE
17  CC1COC(Cn2cncn2)(c2ccc(Oc3ccc(Cl)cc3)cc2Cl)O1 (stereo unspecified)            TRUE
18         CCCCNC(=O)n1c(NC(=O)OC)nc2ccccc21           FALSE
19  CC(Oc1ccc(Cl)cc1Cl)C(=O)O (stereo unspecified)           FALSE
20  CCc1nn(C)c(C(=O)NCc2ccc(C(C)(C)C)cc2)c1Cl            TRUE
21  CC(C)Oc1cc(-n2nc(C(C)(C)C)oc2=O)c(Cl)cc1Cl            TRUE
